# test.target: DP receptor (Homo sapiens, UniProt Q13258)
# Construct: endogenous in cells; host or cells: washed platelets from peripheral blood of a healthy volunteer
# Sequence (Q13258 1-359): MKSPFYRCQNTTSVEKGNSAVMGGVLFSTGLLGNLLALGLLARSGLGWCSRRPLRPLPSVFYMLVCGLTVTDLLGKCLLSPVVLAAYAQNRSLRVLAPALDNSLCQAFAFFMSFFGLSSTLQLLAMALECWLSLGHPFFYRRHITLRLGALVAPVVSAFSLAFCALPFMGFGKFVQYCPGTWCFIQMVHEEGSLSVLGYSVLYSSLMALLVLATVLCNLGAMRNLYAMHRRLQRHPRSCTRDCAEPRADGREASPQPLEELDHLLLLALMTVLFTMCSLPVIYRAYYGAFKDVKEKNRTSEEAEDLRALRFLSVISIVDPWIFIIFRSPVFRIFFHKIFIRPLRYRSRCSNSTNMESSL
# assay.summary: cAMP assay with washed platelet (DP inhibitory activity in vitro)
# Type: cell-based
# setup.conditions: read-out: IC50 (50% DP-inhibitory concentration in the cAMP assay); washed human platelets, 100 nM PGD2, cAMP by HTRF
test.readout: IC50 (nM)
The response must be a number in nM with no trailing unit.

For the compound CC(C)Oc1ccc(S(=O)(=O)N2CCN(c3ccc(C(N)=O)c(OCC(=O)O)c3)CC2)cc1 , give its measured IC50 value.
1800

Others:
Entry CC(C)Oc1ccc(S(=O)(=O)N2CCN(c3ccc(C(=O)Nc4ccccc4)c(OCC(=O)O)c3)CC2)cc1 needs its IC50 filled in; supply it.
1100

* * *

# test.target: DP receptor (Homo sapiens, UniProt Q13258)
# Construct: endogenous in cells
# assay.summary: Receptor binding assay, [3H]-PGD2, platelet membrane
# setup.conditions: [3H]-PGD2, human platelet membrane
# Method: 2) Receptor Binding Assay A prepared WP was homogenated and a membrane fraction was collected with high-speed centrifugation. A compound of the present invention or a reference compound A (No. IC-73 in WO 2003/097598) was added to the plate and [^3H]-PGD2 was also added. A platelet membrane, a protein concentration is 2 mg/mL, was added and mixed in the plate, and placed on ice for 2 hours. […]
Each entry falls into one class according to its Ki; the ranges are class 0 (below 4 µM), class 1 (4 µM to below 10 µM), class 2 (10 µM or more)

Use the examples below as a reference point.
Returns: class label. Input: CNC(=O)c1ccc(N2CCN(S(=O)(=O)c3ccc(OC(C)C)cc3)CC2)cc1OCC(=O)O [II-82]
class 1

Hi there! Could you help me figure out the category for CC(C)Oc1ccc(S(=O)(=O)N2CCN(c3ccc(C(=O)NCc4ccco4)c(OCC(=O)O)c3)CC2)cc1 [II-106] please?
class 2

GET /class?item= CC(C)Oc1ccc(S(=O)(=O)N2CCN(c3ccc(-n4cccn4)c(OCC(=O)O)c3)CC2)cc1 [II-95]
class 1

Which bin, given its Ki, does CC(C)Oc1ccc(S(=O)(=O)N2CCN(c3ccc(C(=O)Nc4nc5ccccc5[nH]4)c(OCC(=O)O)c3)CC2)cc1 [II-101] occupy?
class 2

Which band does CC(C)Oc1ccc(S(=O)(=O)N2CCN(c3cc(F)cc(OCC(=O)O)c3)CC2)cc1 [II-25] fall in?
class 0

Band for CC(C)Oc1ccc(S(=O)(=O)N2CCN(c3ccc(C(=O)NCc4ccccn4)c(OCC(=O)O)c3)CC2)cc1 [II-100] ?
class 2

The entry to classify is CC(C)Oc1ccc(S(=O)(=O)N2CCN(c3ccc(Cl)c(OCC(=O)O)c3)CC2)cc1F [II-31] ; which class holds it?
class 0

Class? Entry: CC(C)Oc1ccc(S(=O)(=O)N2CCC(c3ccc(Cl)c(OCC(=O)O)c3)CC2)cc1 [Compound I-31]
class 0

// switching to the query compound
Would you mind sorting Cc1nnc(-c2ccc(N3CCN(S(=O)(=O)c4ccc(OC(C)C)cc4)CC3)cc2OCC(=O)O)s1 [II-75] into the appropriate category?
class 0

* * *

# test.target: DP receptor (Homo sapiens)
# Construct: endogenous in cells; host or cells: washed platelets from peripheral blood of a healthy volunteer
# assay.summary: cAMP assay with washed platelet (DP inhibitory activity in vitro)
# Format: cell-based
# setup.conditions: read-out: IC50 (50% DP-inhibitory concentration in the cAMP assay); washed human platelets, 100 nM PGD2, cAMP by HTRF
test.readout: IC50 (nM)
Give the value in nM but do not write nM after it.

Some molecules with known IC50 results, for comparison:
Look up IC50 of CC(C)Oc1ccc(S(=O)(=O)N2CCN(c3cc(OCC(=O)O)cc(C(F)(F)F)c3)CC2)cc1 [II-19] and report it.
1100

Provide IC50 value for the following molecule: CC(C)Oc1ccc(S(=O)(=O)N2CCN(c3ccc(Cl)c(OCC(=O)O)c3)C(C)C2)cc1 (centres unmarked) [II-44]
690

Given the molecule CC(C)Oc1ccc(S(=O)(=O)N2CCN(c3ccc(-c4ncco4)c(OCC(=O)O)c3)CC2)cc1 [II-74] , write its reported IC50.
520

Write down IC50 measured for item CC(C)Oc1ccc(S(=O)(=O)N2CCN(c3ccc(-c4cocn4)c(OCC(=O)O)c3)CC2)cc1 [II-96]
290

Turning to the following molecule.
Supply recorded IC50 for CC(C)Oc1ccc(S(=O)(=O)N2CCN(c3ccc4ncn(CC(=O)O)c4c3)CC2)cc1 [II-134] here.
2700

* * *

# test.target: DP receptor (Homo sapiens, UniProt Q13258)
# Construct: endogenous in cells; host or cells: washed platelets from peripheral blood of a healthy volunteer
# assay.summary: Receptor binding assay, [3H]-PGD2, platelet membrane
# setup.conditions: [3H]-PGD2, human platelet membrane
Below, each entry is listed with its recorded pKi.
Recall that pKi is obtained by taking minus log10 of the concentration measured in molar.

Provide one value: measured pKi of CC(C)Oc1ccc(S(=O)(=O)N2CCN(c3ccc([N+](=O)[O-])c(OCC(=O)O)c3)CC2)cc1 [II-13]
6.09

---
Provide measured pKi value, entry: CCCNC(=O)c1ccc(N2CCN(S(=O)(=O)c3ccc(OC(C)C)cc3)CC2)cc1OCC(=O)O [II-83]
4.70

For the compound CC(C)Oc1ccc(S(=O)(=O)N2CCN(c3ccc(-c4ncco4)c(OCC(=O)O)c3)CC2)cn1 [II-94] , give its measured pKi value.
5.77

Entry CC(C)Oc1ccc(S(=O)(=O)N2CCN(c3ccc(C#N)c(OCC(=O)O)c3)CC2)cc1 [II-80] needs its pKi filled in; supply it.
6.64

* * *

# test.target: DP receptor (Homo sapiens, UniProt Q13258)
# Construct: endogenous in cells; host or cells: washed platelets from peripheral blood of a healthy volunteer
# assay.summary: cAMP assay with washed platelet (DP inhibitory activity in vitro)
# Type: cell-based
# setup.conditions: read-out: IC50 (50% DP-inhibitory concentration in the cAMP assay); washed human platelets, 100 nM PGD2, cAMP by HTRF
Reported pIC50 values are given for each entry in this list.
Just the number, please; pIC50 means minus log10 of the concentration in mol/L.

Below are worked cases with known answers.
Please indicate pIC50 recorded for COCC#Cc1cc(OCC(=O)O)cc(N2CCN(S(=O)(=O)c3ccc(OC(C)C)cc3)CC2)c1
5.82

Using the record for CC(C)Oc1ccc(S(=O)(=O)N2CCC(Oc3ccccc3/C=C/C(=O)O)CC2)cc1 , state its measured pIC50.
5.62

Given CC(C)Oc1ccc(S(=O)(=O)N2CCN(c3ccc(OCc4ccccc4)c(OCC(=O)O)c3)CC2)cc1 , respond with its pIC50.
5.39

For the compound CC(C)Oc1ccc(S(=O)(=O)N2CCN(c3ccc(C(=O)NCC4CC4)c(OCC(=O)O)c3)CC2)cc1 , give its measured pIC50 value.
5.82

Here's the next entry for you.
// fetch pIC50 given entry CC(C)Oc1ccc(S(=O)(=O)N2CCN(c3ccc(Cl)c(OCC(=O)O)c3)CC2)cn1
6.00

Recorded values, source patent US9440938B2.
